target: KRAS G12D (Homo sapiens, UniProt P01116, G12D); construct: Human His-tagged KRAS4B (1-169) G12D, G12V and G12C were custom synthesized; 6His (pET-28a(+)-TEV vector) (N); host or cells: E. coli BL21 star (DE3); experiment: ITC binding competition with BI-2852; conditions: Kd of KRB-456 binding to KRAS G12D, preincubation with 500 nmol/L BI-2852, 15 minutes
Attribute Measured: Kd (nM)
Answers are plain numbers, in nM.

# input compound: COC(=O)C1C2C3(C)C(=O)C=CC2(OC3=O)C2CCC3(CBr)CC12CC3=O (stereo not shown) [KRB-456] ; wanted: its Kd
426

* * *

tested on: Panc0203 cells; test: CellTiter-Glo cell viability, Panc0203; format: cell-based; details: Homo sapiens, Panc 02.03, 72 h, Panc0203 (KRAS G12D)
Attribute Measured: pIC50
Answers are plain numbers, as −log10 of the molar value.

# input molecule: COC(=O)C1C2C3(C)C(=O)C=CC2(OC3=O)C2CCC3(CBr)CC12CC3=O (stereo not shown) ; wanted: its pIC50
5.31

* * *

target: GTP-KRAS G12D binding to GST-RBD (Homo sapiens, UniProt P01116, G12D); construct: Human His-tagged KRAS4B (1-169) G12D, G12V and G12C were custom synthesized; Addgene (GST-RBD) Addgene 13338; assay: KRAS G12D/GST-RBD pulldown assay; conditions: GST pulldown, Fig. 2 legend; read-out: IC50, inhibition of GTP-KRAS G12D/GST-RBD binding
Task for the reader: assign each of the following compounds its reported IC50.
Answers are plain numbers, in nM.

Solved cases (3 shown):
> print(dat)
                                   compound  assay.value
1  COC(=O)C1C2C3(C)C(=O)C=CC2(OC3=O)C2CCC3(CI)CC12CC3=O (stereo not shown) [IB-21G]          360
2  C=C1C[C@]23C[C@@]1(OC(C)=O)CC[C@H]2[C@@]12C=CC(=O)[C@@](C)(C(=O)O1)[C@H]2[C@@H]3C(=O)OC [IB-21J]         2020
3  COC(=O)C1C2C3(C)C(=O)C=CC2(OC3=O)C2CCC3(CBr)CC12CC3=O (stereo not shown) [KRB-456]          260

# evaluate next
# input compound: C=C1C[C@]23C[C@@]1(O)CC[C@H]2[C@@]12C=CC(=O)[C@@](C)(C(=O)O1)[C@H]2[C@@H]3C(=O)NCc1ccccc1 [IIA-15D] ; wanted: its IC50
10800

* * *

target: KRAS G12D (Homo sapiens, UniProt P01116, G12D); construct: Human His-tagged KRAS4B (1-169) G12D, G12V and G12C were custom synthesized; 6His (pET-28a(+)-TEV vector) (N); host or cells: E. coli BL21 star (DE3); assay: Isothermal titration calorimetry, KRAS G12D; format: binding; details: ITC, KRAS G12D-NE (non-exchanged), 25°C
Task for the reader: assign each of the following compounds its reported Kd.
One number for each entry, in nM.

> print(dat)
                                   compound  assay.value
1  COC(=O)C1C2C3(C)C(=O)C=CC2(OC3=O)C2CCC3(CBr)CC12CC3=O (stereo not shown) [KRB-456]          247
2  C=C1C[C@]23C[C@@]1(O)CC[C@H]2[C@@]12C=CC(=O)[C@@](C)(C(=O)O1)[C@H]2[C@@H]3C(=O)NCc1ccccc1 [IIA-15D]        11600
3  C=C1C[C@]23C[C@@]1(OC(C)=O)CC[C@H]2[C@@]12C=CC(=O)[C@@](C)(C(=O)O1)[C@H]2[C@@H]3C(=O)OC [IB-21J]         4810

# evaluate next
# input compound: COC(=O)C1C2C3(C)C(=O)C=CC2(OC3=O)C2CCC3(CI)CC12CC3=O (stereo not shown) [IB-21G] ; wanted: its Kd
641
